Target Of Assay: human MASP2 (Homo sapiens (Human), UniProt O00187)
Sequence (O00187 other isoform, or with tags, fused parts or gaps): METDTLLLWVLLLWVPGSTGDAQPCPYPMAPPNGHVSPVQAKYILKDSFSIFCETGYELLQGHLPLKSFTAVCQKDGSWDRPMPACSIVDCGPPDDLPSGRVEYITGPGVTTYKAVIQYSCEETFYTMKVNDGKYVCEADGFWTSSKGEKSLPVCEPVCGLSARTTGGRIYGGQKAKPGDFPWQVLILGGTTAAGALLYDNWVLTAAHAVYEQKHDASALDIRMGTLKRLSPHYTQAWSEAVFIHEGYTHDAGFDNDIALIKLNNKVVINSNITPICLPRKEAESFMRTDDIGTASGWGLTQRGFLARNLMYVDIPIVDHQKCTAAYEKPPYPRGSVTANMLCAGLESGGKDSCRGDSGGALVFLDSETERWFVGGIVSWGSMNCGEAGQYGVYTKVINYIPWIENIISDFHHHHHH
Assay Method Text: Biochemical human MASP2 assay (FRET substrate)
Experimental Context: Average IC50; recombinant human MASP2; read-out: human MASP2 IC50
Where a SMILES comes first, the peptide text is derived from it. Bridges are numbered along the chain shown (N, C = ends). [ ]: non-standard residue; d: D form. Oic = O=C(O)[C@@H]1C[C@@H]2CCCC[C@@H]2N1; tBuAla = CC(C)(C)C[C@H](N)C(=O)O; Pen = CC(C)(S)[C@H](N)C(=O)O; Orn = NCCC[C@H](N)C(=O)O; Dap = NC[C@H](N)C(=O)O; Ahx = NCCCCCC(=O)O
Readout Name: pIC50
Conceptually, pIC50 converts a concentration in mol/L into minus its log10.

The recorded pIC50 for `CC[C@H](C)[C@@H]1NC(=O)[C@@H]2CCCN2C(=O)[C@@H]2CCCN2C(=O)[C@H](CC(C)(C)C)NC(=O)[C@H](CO)NC(=O)[C@H](CCCNC(=N)N)NC(=O)[C@H](CO)NC(=O)[C@@H]2CSSC(C)(C)[C@H](NC1=O)C(=O)N[C@@H]([C@@H](C)CC)C(=O)N1CCC[C@H]1C(=O)NCCCCCC(=O)NC[C@H]1CC[C@@H](CC1)C(=O)N[C@@H]([C@@H](C)CC)C(=O)N2` is 8.24

The recorded pIC50 for CC[C@H](C)[C@@H]1NC(=O)CNC(=O)[C@@H](N)CCC(=O)NC[C@@H](C(N)=O)NC(=O)[C@H](CC(=O)O)NC(=O)[C@@H]2CCCN2C(=O)[C@H]([C@@H](C)CC)NC(=O)[C@H]2NC(=O)[C@H]([C@@H](C)CC)NC(=O)[C@@H]3C[C@@H]4CCCC[C@@H]4N3C(=O)[C@@H]3CCCN3C(=O)[C@H](CC(C)C)NC(=O)[C@H](CO)NC(=O)[C@H](CCCNC(=N)N)NC(=O)[C@H](CO)NC(=O)[C@H](CSSC2(C)C)NC1=O [Example 93] (H-EGICSRSLP[Oic]I[Pen]IPD[Dap]-NH2; lactam 1-16; disulfide 4-12) is 7.35

The recorded pIC50 for CC[C@H](C)[C@@H]1NC(=O)CNC(=O)CCCCCNC(=O)C[C@@H](C(N)=O)NC(=O)[C@@H]2CCCN2C(=O)[C@H]([C@@H](C)CC)NC(=O)[C@H]2NC(=O)[C@H]([C@@H](C)CC)NC(=O)[C@@H]3C[C@@H]4CCCC[C@@H]4N3C(=O)[C@@H]3CCCN3C(=O)[C@H](CC(C)C)NC(=O)[C@H](CO)NC(=O)[C@H](CCCNC(=N)N)NC(=O)[C@H](CO)NC(=O)[C@H](CSSC2(C)C)NC1=O [Example 49] ([Ahx]GICSRSLP[Oic]I[Pen]IPD-NH2; disulfide 4-12; lactam N-15) is 6.85

The recorded pIC50 for CC[C@H](C)[C@@H]1NC(=O)CNC(=O)CNC(=O)[C@H](C)NC(=O)C[C@@H](C(N)=O)NC(=O)[C@@H]2CCCN2C(=O)[C@H]([C@@H](C)CC)NC(=O)[C@H]2NC(=O)[C@H]([C@@H](C)CC)NC(=O)[C@@H]3C[C@@H]4CCCC[C@@H]4N3C(=O)[C@@H]3CCCN3C(=O)[C@H](CC(C)C)NC(=O)[C@H](CO)NC(=O)[C@H](CCCNC(=N)N)NC(=O)[C@H](CO)NC(=O)[C@H](CSSC2(C)C)NC1=O [Example 42] (AGGICSRSLP[Oic]I[Pen]IPD-NH2; disulfide 5-13; lactam N-16) is 6.70

The recorded pIC50 for CC[C@H](C)[C@@H]1NC(=O)[C@H](C)NC(=O)[C@@H](N)CCCNC(=O)C[C@@H](C(N)=O)NC(=O)[C@@H]2CCCN2C(=O)[C@H]([C@@H](C)CC)NC(=O)[C@H]2NC(=O)[C@H]([C@@H](C)CC)NC(=O)[C@@H]3CCCN3C(=O)[C@@H]3CCCN3C(=O)[C@H](CC(C)(C)C)NC(=O)[C@H](CO)NC(=O)[C@H](CCCNC(=N)N)NC(=O)[C@H](CO)NC(=O)[C@H](CSSC2(C)C)NC1=O [Example 61] (H-[Orn]AICSRS[tBuAla]PPI[Pen]IPD-NH2; lactam 1-15; disulfide 4-12) is 6.51

====

Target Of Assay: human MASP2 (Homo sapiens (Human))
Assay Method Text: Biochemical human MASP2 assay (FRET substrate)
Experimental Context: Average IC50; recombinant human MASP2; read-out: human MASP2 IC50
Protocol: The MASP1 or MASP2 expression vectors were transfected into the HEK293 (ATCC No. CRL-1573) cell line using Lipofectamine LTX® Reagent (Thermo-Fischer), as described by the manufacturer. […] The increase of fluorescence intensity was measured in appropriate fluorescence plate reader (e.g. TECAN Ultra) using excitation wavelength of 340 nm and emission wavelength of 490 nm. IC50 values were calculated from percentage of inhibition of human MASP2 activity as a function of test compound concentration.
Where a SMILES comes first, the peptide text is derived from it. Bridges are numbered along the chain shown (N, C = ends). [ ]: non-standard residue; d: D form. ξ: configuration not given here. Trx = NC[C@H]1CC[C@H](C(=O)O)CC1; tBuAla = CC(C)(C)C[C@H](N)C(=O)O; Pen = CC(C)(S)[C@H](N)C(=O)O; NMeC = CN[C@@H](CS)C(=O)O; Abu = CC[C@H](N)C(=O)O; ξD = NC(CC(=O)O)C(=O)O; Ahx = NCCCCCC(=O)O
Readout Name: pIC50
Conceptually, pIC50 converts a concentration in mol/L into minus its log10.

# Molecule, Target Of Assay, pIC50
rows = [
    ("CC[C@H](C)[C@@H]1NC(=O)CNC(=O)[C@H]2CC[C@@H](CC2)CNC(=O)CNC(=O)CC(C(N)=O)NC(=O)[C@@H]2CCCN2C(=O)[C@H]([C@@H](C)CC)NC(=O)[C@H]2NC(=O)[C@H]([C@@H](C)CC)NC(=O)[C@@H]3CCCN3C(=O)[C@@H]3CCCN3C(=O)[C@H](CC(C)(C)C)NC(=O)[C@H](CO)NC(=O)[C@H](CCCNC(=N)N)NC(=O)[C@H](CO)NC(=O)[C@H](CSSC2(C)C)NC1=O (some centres unmarked) [Example 62] (G[Trx]GICSRS[tBuAla]PPI[Pen]IP[ξD]-NH2; disulfide 5-13; lactam N-16)", "human MASP2 (Homo sapiens (Human))", 6.27),
]

The recorded pIC50 for CC[C@@H]1NC(=O)CCCCCNC(=O)[C@H](CC(=O)O)NC(=O)[C@@H]2CCCN2C(=O)[C@H]([C@@H](C)CC)NC(=O)[C@@H]2CSSC[C@H](NC(=O)[C@H]([C@@H](C)CC)NC1=O)C(=O)N[C@@H](CO)C(=O)N[C@@H](CCCNC(=N)N)C(=O)N[C@@H](CO)C(=O)N[C@@H](CC(C)(C)C)C(=O)N1CCC[C@H]1C(=O)N1CCC[C@H]1C(=O)N[C@@H]([C@@H](C)CC)C(=O)N2C [Example 33] (cyclo([Abu]ICSRS[tBuAla]PPI[NMeC]IPD[Ahx]); disulfide 3-11) is 7.21

====

Target Of Assay: human MASP2 (Homo sapiens (Human), UniProt O00187)
Assay Method Text: Biochemical human MASP2 assay (FRET substrate)
Experimental Context: Average IC50; recombinant human MASP2; read-out: human MASP2 IC50
Where a SMILES comes first, the peptide text is derived from it. Bridges are numbered along the chain shown (N, C = ends). [ ]: non-standard residue; d: D form. tBuAla = CC(C)(C)C[C@H](N)C(=O)O; Pen = CC(C)(S)[C@H](N)C(=O)O; Dap = NC[C@H](N)C(=O)O; Ahx = NCCCCCC(=O)O
Below: a set of entries, each annotated with reported IC50.
Answer in nM, number only, no unit symbol.

# Molecule, Result Units, Result
rows = [
    ("CC[C@H](C)[C@@H]1NC(=O)CCCNC(=O)[C@H](CC(=O)O)NC(=O)[C@@H]2CCCN2C(=O)[C@H]([C@@H](C)CC)NC(=O)[C@H]2NC(=O)[C@H]([C@@H](C)CC)NC(=O)[C@@H]3CCCN3C(=O)[C@@H]3CCCN3C(=O)[C@H](CC(C)(C)C)NC(=O)[C@H](CO)NC(=O)[C@H](CCCNC(=N)N)NC(=O)[C@H](CO)NC(=O)[C@H](CSSC2(C)C)NC1=O", "nM", 17),
    ("CC[C@H](C)[C@@H]1NC(=O)CNC(=O)CNC(=O)[C@@H](N)CNC(=O)[C@H](CC(=O)O)NC(=O)[C@@H]2CCCN2C(=O)[C@H]([C@@H](C)CC)NC(=O)[C@@H]2CSSC[C@H](NC1=O)C(=O)N[C@@H](CO)C(=O)N[C@@H](CCCNC(=N)N)C(=O)N[C@@H](CO)C(=O)N[C@@H](CC(C)C)C(=O)N1CCC[C@H]1C(=O)N1CCC[C@H]1C(=O)N[C@@H]([C@@H](C)CC)C(=O)N2 [Example 20] (H-[Dap]GGICSRSLPPICIPD; lactam 1-C; disulfide 5-13)", "nM", 110),
]

Attention now shifts to the item below.
The recorded IC50 for CC[C@H](C)[C@@H]1NC(=O)[C@H](C)NC(=O)CCCCCNC(=O)[C@H]([C@@H](C)CC)NC(=O)[C@H]2NC(=O)[C@H]([C@@H](C)CC)NC(=O)[C@@H]3CCCN3C(=O)[C@@H]3CCCN3C(=O)[C@H](CC(C)(C)C)NC(=O)[C@H](CO)NC(=O)[C@H](CCCNC(=N)N)NC(=O)[C@H](CO)NC(=O)[C@H](CSSC2(C)C)NC1=O [Example 72] (cyclo(AICSRS[tBuAla]PPI[Pen]I[Ahx]); disulfide 3-11) is 48
